# procedure details: Metabolic stability in mouse liver microsomes
# Type: ADME, Microsome
# experimental parameters: read-out: Stability
reported metric: microsomal CLint (µL/min/mg)

structure_as_smiles=C[C@@H](NC[C@@H](O)[C@H](Cc1ccccc1)NC(=O)c1ccc(C(=O)N2CCCCC2)cc1)c1ccccc1 quantitative_readout=860
structure_as_smiles=C[C@@H](NC[C@@H](O)[C@H](Cc1ccccc1)NC(=O)c1ccc(NC2CCN(C)CC2)cc1)c1ccccc1 quantitative_readout=76
structure_as_smiles=C[C@@H](NC[C@@H](O)[C@H](Cc1ccccc1)NC(=O)c1ccc(Nc2ccncc2)cc1)c1ccccc1 quantitative_readout=112

###

# Tested on: Plasmodium falciparum
# procedure details: Antimalarial activity against chloroquine-sensitive Plasmodium falciparum NF54 infected in RBC after 72 hrs by [3H]hypoxanthine incorporation assay in presence of 0.5 % albumax
# Type: functional, organism-based
pIC50: −log10 of the molar value.
reported metric: pIC50

structure_as_smiles=CCCN(CCC)C(=O)c1cccc(C(=O)N[C@@H](Cc2ccccc2)[C@H](O)CN2CCN(C(C)=O)CC2)c1 assay_target="Plasmodium falciparum" result="< 6.30"
structure_as_smiles=CCCN(CCC)C(=O)c1cccc(C(=O)N[C@@H](Cc2ccccc2)[C@H](O)CN2CCN(Cc3ccccc3)CC2)c1 assay_target="Plasmodium falciparum" result="< 6.30"
structure_as_smiles=CC(C)(NC[C@@H](O)[C@H](Cc1ccccc1)NC(=O)C1CCCC1)c1ccccc1 assay_target="Plasmodium falciparum" result="< 6.30"

###

# Tested on: Plasmodium falciparum
# procedure details: Antimalarial activity against chloroquine-sensitive Plasmodium falciparum NF54 infected in RBC after 72 hrs by [3H]hypoxanthine incorporation assay in presence of 0.5 % albumax
# Assay type: functional, organism-based
reported metric: IC50 (nM)

structure_as_smiles=CCCN(CCC)C(=O)c1cccc(C(=O)N[C@@H](Cc2ccccc2)[C@H](O)CNC(C)(C)c2cccc(F)c2)c1 quantitative_readout=9.6
structure_as_smiles=CCCN(CCC)C(=O)c1cccc(C(=O)N[C@@H](Cc2ccccc2)[C@H](O)CNC2(c3ccccc3)CCCC2)c1 quantitative_readout=12
structure_as_smiles=CCCN(CCC)C(=O)c1cccc(C(=O)N[C@@H](Cc2ccccc2)[C@H](O)CN[C@H](C)C2CCCCC2)c1 quantitative_readout=11
structure_as_smiles=CCCN(CCC)C(=O)c1cccc(C(=O)N[C@@H](Cc2ccccc2)[C@H](O)CNC2CCOCC2)c1 quantitative_readout=16
